Target: T1, P1A-bS
T1 chain: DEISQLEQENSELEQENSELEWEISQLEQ
Test: two-hybrid library CCNG1;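 also: natural log of median RNA to DNA barcode read ratio; higher means stronger binding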
# interaction score >= -1 gives 1 (yes), anything below gives 0 (no)

For orientation, consider the following solved cases.
DEIQQLEQKNQELKQKIQELKWENQELKQ [4H492-bN] | 0 (no)
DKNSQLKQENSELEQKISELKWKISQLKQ [P10A-bS] | 0 (no)
DENSQLEQEISELEQEISELEWKNSQLKQ [P11A-bS] | 1 (yes)

As a next step, examine the binder that follows.
[in] Tell me whether interaction score is at least -1 here: DKNSQLKQKISELKQKISELKWENSQLEQ [P12A-bS]
[out] 1 (yes)
